# Tested on: feline FcRn complex (FcRn-α subunit and β-microglobulin), biotin labeled (feline)
# Experiment notes: SPR, pH 6
pKd overview
Quick note: pKd values are minus log10 of concentrations in mol/L.

Binder	Numeric readout
feline IgG1a S252Y/S428Y/D312P (antibody, part only; not given: variable domains, not shown: another chain or arm of the molecule) constant: ASTTAPSVFPLAPSCGTTSGATVALACLVLGYFPEPVTVSWNSGALTSGVHTFPAVLQASGLYSLSSMVTVPSSRWLSDTFTCNVAHPPSNTKVDKTVRKTDHPPGPKPCDCPKCPPPEMLGGPSIFIFPPKPKDTLYISRTPEVTCLVVDLGPDDSDVQITWFVDNTQVYTAKTSPREEQFNSTYRVVSVLPILHQPWLKGKEFKCKVNSKSLPSPIERTISKAKGQPHEPQVYVLPPAQEELSRNKVSVTCLIKSFHPPDIAVEWEITGQPEPENNYRTTPPQLDSDGTYFVYSKLSVDRSHWQRGNTYTCSVYHEALHSHHTQKSLTQSPGK	7.82
feline IgG1a L314K (antibody, part only; not given: variable domains and light chain, not shown: another chain or arm of the molecule) constant: ASTTAPSVFPLAPSCGTTSGATVALACLVLGYFPEPVTVSWNSGALTSGVHTFPAVLQASGLYSLSSMVTVPSSRWLSDTFTCNVAHPPSNTKVDKTVRKTDHPPGPKPCDCPKCPPPEMLGGPSIFIFPPKPKDTLSISRTPEVTCLVVDLGPDDSDVQITWFVDNTQVYTAKTSPREEQFNSTYRVVSVLPILHQDWKKGKEFKCKVNSKSLPSPIERTISKAKGQPHEPQVYVLPPAQEELSRNKVSVTCLIKSFHPPDIAVEWEITGQPEPENNYRTTPPQLDSDGTYFVYSKLSVDRSHWQRGNTYTCSVSHEALHSHHTQKSLTQSPGK	8.07
feline IgG1a S254E (antibody, part only; not given: Variable domains, not shown: another chain or arm of the molecule) constant: ASTTAPSVFPLAPSCGTTSGATVALACLVLGYFPEPVTVSWNSGALTSGVHTFPAVLQASGLYSLSSMVTVPSSRWLSDTFTCNVAHPPSNTKVDKTVRKTDHPPGPKPCDCPKCPPPEMLGGPSIFIFPPKPKDTLSIERTPEVTCLVVDLGPDDSDVQITWFVDNTQVYTAKTSPREEQFNSTYRVVSVLPILHQDWLKGKEFKCKVNSKSLPSPIERTISKAKGQPHEPQVYVLPPAQEELSRNKVSVTCLIKSFHPPDIAVEWEITGQPEPENNYRTTPPQLDSDGTYFVYSKLSVDRSHWQRGNTYTCSVSHEALHSHHTQKSLTQSPGK	9.15
feline IgG1a S252Y/L314K (antibody, part only; not given: Variable domains, not shown: another chain or arm of the molecule) constant: ASTTAPSVFPLAPSCGTTSGATVALACLVLGYFPEPVTVSWNSGALTSGVHTFPAVLQASGLYSLSSMVTVPSSRWLSDTFTCNVAHPPSNTKVDKTVRKTDHPPGPKPCDCPKCPPPEMLGGPSIFIFPPKPKDTLYISRTPEVTCLVVDLGPDDSDVQITWFVDNTQVYTAKTSPREEQFNSTYRVVSVLPILHQDWKKGKEFKCKVNSKSLPSPIERTISKAKGQPHEPQVYVLPPAQEELSRNKVSVTCLIKSFHPPDIAVEWEITGQPEPENNYRTTPPQLDSDGTYFVYSKLSVDRSHWQRGNTYTCSVSHEALHSHHTQKSLTQSPGK	7.96

Q: Item under review: feline IgG1a T256L (antibody, part only; not given: Variable domains, not shown: another chain or arm of the molecule) constant: ASTTAPSVFPLAPSCGTTSGATVALACLVLGYFPEPVTVSWNSGALTSGVHTFPAVLQASGLYSLSSMVTVPSSRWLSDTFTCNVAHPPSNTKVDKTVRKTDHPPGPKPCDCPKCPPPEMLGGPSIFIFPPKPKDTLSISRLPEVTCLVVDLGPDDSDVQITWFVDNTQVYTAKTSPREEQFNSTYRVVSVLPILHQDWLKGKEFKCKVNSKSLPSPIERTISKAKGQPHEPQVYVLPPAQEELSRNKVSVTCLIKSFHPPDIAVEWEITGQPEPENNYRTTPPQLDSDGTYFVYSKLSVDRSHWQRGNTYTCSVSHEALHSHHTQKSLTQSPGK . Reported pKd?
Ans: 7.06

Q: Item under review: feline IgG1a S434C (antibody, part only; not given: Variable domains, not shown: another chain or arm of the molecule) constant: ASTTAPSVFPLAPSCGTTSGATVALACLVLGYFPEPVTVSWNSGALTSGVHTFPAVLQASGLYSLSSMVTVPSSRWLSDTFTCNVAHPPSNTKVDKTVRKTDHPPGPKPCDCPKCPPPEMLGGPSIFIFPPKPKDTLSISRTPEVTCLVVDLGPDDSDVQITWFVDNTQVYTAKTSPREEQFNSTYRVVSVLPILHQDWLKGKEFKCKVNSKSLPSPIERTISKAKGQPHEPQVYVLPPAQEELSRNKVSVTCLIKSFHPPDIAVEWEITGQPEPENNYRTTPPQLDSDGTYFVYSKLSVDRSHWQRGNTYTCSVSHEALHCHHTQKSLTQSPGK . Reported pKd?
Ans: 7.93

Q: Item under review: feline IgG1a S428Y/D312P/L314K (antibody, part only; not given: Variable domains, not shown: another chain or arm of the molecule) constant: ASTTAPSVFPLAPSCGTTSGATVALACLVLGYFPEPVTVSWNSGALTSGVHTFPAVLQASGLYSLSSMVTVPSSRWLSDTFTCNVAHPPSNTKVDKTVRKTDHPPGPKPCDCPKCPPPEMLGGPSIFIFPPKPKDTLSISRTPEVTCLVVDLGPDDSDVQITWFVDNTQVYTAKTSPREEQFNSTYRVVSVLPILHQPWKKGKEFKCKVNSKSLPSPIERTISKAKGQPHEPQVYVLPPAQEELSRNKVSVTCLIKSFHPPDIAVEWEITGQPEPENNYRTTPPQLDSDGTYFVYSKLSVDRSHWQRGNTYTCSVYHEALHSHHTQKSLTQSPGK . Reported pKd?
Ans: 7.82

Q: Item under review: feline IgG1a S254M (antibody, part only; not given: Variable domains, not shown: another chain or arm of the molecule) constant: ASTTAPSVFPLAPSCGTTSGATVALACLVLGYFPEPVTVSWNSGALTSGVHTFPAVLQASGLYSLSSMVTVPSSRWLSDTFTCNVAHPPSNTKVDKTVRKTDHPPGPKPCDCPKCPPPEMLGGPSIFIFPPKPKDTLSIMRTPEVTCLVVDLGPDDSDVQITWFVDNTQVYTAKTSPREEQFNSTYRVVSVLPILHQDWLKGKEFKCKVNSKSLPSPIERTISKAKGQPHEPQVYVLPPAQEELSRNKVSVTCLIKSFHPPDIAVEWEITGQPEPENNYRTTPPQLDSDGTYFVYSKLSVDRSHWQRGNTYTCSVSHEALHSHHTQKSLTQSPGK . Reported pKd?
Ans: 7.00
